Tested on: Klebsiella pneumoniae
Procedure Summary: Antibacterial activity against Klebsiella pneumoniae at 100 ug/ml after 24 hrs by agar well diffusion method
Type: functional
Applied Conditions: read-out: DIZ
Items are presented alongside their recorded zone of inhibition at 100 µg/mL.
Quick reminder: number only, in mm, skip the unit.

COc1ccc2c(c1)c(C=C1C(=O)OC(C)(C)OC1=O)cn2C
14
Cn1cc(C=C2C(=O)OC(C)(C)OC2=O)c2cc(Br)ccc21
14
Cn1cc(C=C2C(=O)OC(C)(C)OC2=O)c2ccccc21
14
CCn1cc(C=C2C(=O)OC(C)(C)OC2=O)c2cc(Br)ccc21
13.4
CCn1cc(C=C2C(=O)OC(C)(C)OC2=O)c2ccccc21
14

*Q* Requested read-out: zone of inhibition at 100 µg/mL. Entry: CCn1cc(C=C2C(=O)OC(C)(C)OC2=O)c2cc(OC)ccc21
*A* 13

---

Test system: Aspergillus flavus
Procedure Summary: Antifungal activity against Aspergillus flavus at 200 ug/ml after 72 hrs by agar well diffusion method
Format: functional
Applied Conditions: read-out: DIZ
Quantity: zone of inhibition at 200 µg/mL (mm)
Quick reminder: number only, in mm, skip the unit.

Some compounds with recorded zone of inhibition at 200 µg/mL:
CCn1cc(C=C2C(=O)OC(C)(C)OC2=O)c2ccccc21
12
CCn1cc(C=C2C(=O)OC(C)(C)OC2=O)c2cc([N+](=O)[O-])ccc21
12
CC1(C)OC(=O)C(=Cc2c[nH]c3ccc(Br)cc23)C(=O)O1
13
COc1ccc2[nH]cc(C=C3C(=O)OC(C)(C)OC3=O)c2c1
12
CCn1cc(C=C2C(=O)OC(C)(C)OC2=O)c2cc(OC)ccc21
12

Now for the compound whose zone of inhibition at 200 µg/mL we want.
*Q* Requested read-out: zone of inhibition at 200 µg/mL. Entry: Cn1cc(C=C2C(=O)OC(C)(C)OC2=O)c2cc(Br)ccc21
*A* 12

---

Items are presented alongside their recorded zone of inhibition at 300 µg/mL.
Tested on: Escherichia coli
Procedure Summary: Antibacterial activity against Escherichia coli ATCC 8739 at 300 ug/ml after 24 hrs by agar well diffusion method
Format: functional
Applied Conditions: ATCC 8739, 24 h, read-out: DIZ
Quick reminder: number only, in mm, skip the unit.

Some molecules with recorded zone of inhibition at 300 µg/mL:
CC1(C)OC(=O)C(=Cc2c[nH]c3ccc([N+](=O)[O-])cc23)C(=O)O1
22
CN[C@@H]1[C@H](O[C@H]2[C@H](O[C@H]3[C@H](O)[C@@H](O)[C@H](N=C(N)N)[C@@H](O)[C@@H]3N=C(N)N)O[C@@H](C)[C@]2(O)C=O)O[C@@H](CO)[C@H](O)[C@H]1O
26
CC1(C)OC(=O)C(=Cc2c[nH]c3ccc(Br)cc23)C(=O)O1
23
COc1ccc2[nH]cc(C=C3C(=O)OC(C)(C)OC3=O)c2c1
22

Now for the molecule whose zone of inhibition at 300 µg/mL we want.
*Q* # query: zone of inhibition at 300 µg/mL | item Cn1cc(C=C2C(=O)OC(C)(C)OC2=O)c2cc(Br)ccc21 | system: Escherichia coli
*A* 21

---

Tested on: Aspergillus niger
Procedure Summary: Antifungal activity against Aspergillus niger at 300 ug/ml after 72 hrs by agar well diffusion method
Format: functional
Applied Conditions: read-out: DIZ
Quantity: zone of inhibition at 300 µg/mL (mm)
Quick reminder: number only, in mm, skip the unit.

*Q* Requested read-out: zone of inhibition at 300 µg/mL. Entry: CCn1cc(C=C2C(=O)OC(C)(C)OC2=O)c2cc([N+](=O)[O-])ccc21
*A* 18

*Q* Requested read-out: zone of inhibition at 300 µg/mL. Entry: COc1ccc2c(c1)c(C=C1C(=O)OC(C)(C)OC1=O)cn2C
*A* 18

*Q* Requested read-out: zone of inhibition at 300 µg/mL. Entry: Cn1cc(C=C2C(=O)OC(C)(C)OC2=O)c2cc([N+](=O)[O-])ccc21
*A* 18

*Q* Requested read-out: zone of inhibition at 300 µg/mL. Entry: CCn1cc(C=C2C(=O)OC(C)(C)OC2=O)c2ccccc21
*A* 18

*Q* Requested read-out: zone of inhibition at 300 µg/mL. Entry: COc1ccc2[nH]cc(C=C3C(=O)OC(C)(C)OC3=O)c2c1
*A* 14

*Q* Requested read-out: zone of inhibition at 300 µg/mL. Entry: CC1(C)OC(=O)C(=Cc2c[nH]c3ccccc23)C(=O)O1
*A* 19

*Q* Requested read-out: zone of inhibition at 300 µg/mL. Entry: CCn1cc(C=C2C(=O)OC(C)(C)OC2=O)c2cc(Br)ccc21
*A* 18

*Q* Requested read-out: zone of inhibition at 300 µg/mL. Entry: CCn1cc(C=C2C(=O)OC(C)(C)OC2=O)c2cc(OC)ccc21
*A* 18

*Q* Requested read-out: zone of inhibition at 300 µg/mL. Entry: CC1(C)OC(=O)C(=Cc2c[nH]c3ccc([N+](=O)[O-])cc23)C(=O)O1
*A* 19

*Q* Requested read-out: zone of inhibition at 300 µg/mL. Entry: Cn1cc(C=C2C(=O)OC(C)(C)OC2=O)c2ccccc21
*A* 18

*Q* Requested read-out: zone of inhibition at 300 µg/mL. Entry: CC1(C)OC(=O)C(=Cc2c[nH]c3ccc(Br)cc23)C(=O)O1
*A* 19

*Q* Requested read-out: zone of inhibition at 300 µg/mL. Entry: Cn1cc(C=C2C(=O)OC(C)(C)OC2=O)c2cc(Br)ccc21
*A* 18

---

System: Klebsiella pneumoniae
Procedure Summary: Antibacterial activity against Klebsiella pneumoniae at 50 ug/ml after 24 hrs by agar well diffusion method
Type: functional
Applied Conditions: read-out: DIZ
Items are presented alongside their recorded zone of inhibition at 50 µg/mL.
Include the unit right after the number.

Some compounds with recorded zone of inhibition at 50 µg/mL:
CC1(C)OC(=O)C(=Cc2c[nH]c3ccc(Br)cc23)C(=O)O1
11 mm
CN[C@@H]1[C@H](O[C@H]2[C@H](O[C@H]3[C@H](O)[C@@H](O)[C@H](N=C(N)N)[C@@H](O)[C@@H]3N=C(N)N)O[C@@H](C)[C@]2(O)C=O)O[C@@H](CO)[C@H](O)[C@H]1O [STREPTOMYCIN]
13 mm
COc1ccc2c(c1)c(C=C1C(=O)OC(C)(C)OC1=O)cn2C
9 mm
Cn1cc(C=C2C(=O)OC(C)(C)OC2=O)c2ccccc21
9 mm
CCn1cc(C=C2C(=O)OC(C)(C)OC2=O)c2ccccc21
9 mm

*Q* Requested read-out: zone of inhibition at 50 µg/mL. Entry: Cn1cc(C=C2C(=O)OC(C)(C)OC2=O)c2cc(Br)ccc21
*A* 9 mm

*Q* Requested read-out: zone of inhibition at 50 µg/mL. Entry: CCn1cc(C=C2C(=O)OC(C)(C)OC2=O)c2cc(Br)ccc21
*A* 8.4 mm

*Q* Requested read-out: zone of inhibition at 50 µg/mL. Entry: CC1(C)OC(=O)C(=Cc2c[nH]c3ccccc23)C(=O)O1
*A* 11 mm

---

Test system: Klebsiella pneumoniae
Procedure Summary: Antibacterial activity against Klebsiella pneumoniae at 200 ug/ml after 24 hrs by agar well diffusion method
Format: functional
Applied Conditions: read-out: DIZ
Quantity: zone of inhibition at 200 µg/mL (mm)
Quick reminder: number only, in mm, skip the unit.

COc1ccc2c(c1)c(C=C1C(=O)OC(C)(C)OC1=O)cn2C
18
CC1(C)OC(=O)C(=Cc2c[nH]c3ccc(Br)cc23)C(=O)O1
20
COc1ccc2[nH]cc(C=C3C(=O)OC(C)(C)OC3=O)c2c1
20
CN[C@@H]1[C@H](O[C@H]2[C@H](O[C@H]3[C@H](O)[C@@H](O)[C@H](N=C(N)N)[C@@H](O)[C@@H]3N=C(N)N)O[C@@H](C)[C@]2(O)C=O)O[C@@H](CO)[C@H](O)[C@H]1O
24
CC1(C)OC(=O)C(=Cc2c[nH]c3ccc([N+](=O)[O-])cc23)C(=O)O1
20

*Q* Requested read-out: zone of inhibition at 200 µg/mL. Entry: Cn1cc(C=C2C(=O)OC(C)(C)OC2=O)c2cc([N+](=O)[O-])ccc21
*A* 18

*Q* Requested read-out: zone of inhibition at 200 µg/mL. Entry: CCn1cc(C=C2C(=O)OC(C)(C)OC2=O)c2cc(OC)ccc21
*A* 15

*Q* Requested read-out: zone of inhibition at 200 µg/mL. Entry: CC1(C)OC(=O)C(=Cc2c[nH]c3ccccc23)C(=O)O1
*A* 20

*Q* Requested read-out: zone of inhibition at 200 µg/mL. Entry: Cn1cc(C=C2C(=O)OC(C)(C)OC2=O)c2ccccc21
*A* 18
